Tested on: NCI-H322M lung
measurement.protocol: NCI-60 one-dose screen, 48 h (100 = growth as untreated, 0 = no growth, -100 = all killed)
run.conditions: 10 µM unless noted
Experimental: Growth inhibition of the NCI-H322M human Non-Small Cell Lung tumor cell line is measured as a screen for anti-cancer activity. Cells are grown in 96 well plates and exposed to the test compound for 48 hours. Compounds are tested at a single concentration, which is 10^-5 M for most compounds. The reported endpoint is percent growth (GI% or GIPRCNT), where numbers from 0 - 100% represent growth inhibition, and numbers from -100% - 0 represent cell death. […]
The panel holds about 83,000 compounds, 20% with a hit somewhere; the sample as a whole holds those more often.
endpoint.label: growth (%)
Kindly answer with a numeric value in %, unit omitted.

Checklist item: growth tested on NCI-H322M lung, entry "C#Cc1nc(/C=C/CCCCCCC(=O)NO)cs1" , value?
85.2

Check "C#CCOc1ccccc1/C=N/Nc1nc(-c2ccc(Cl)cc2)cs1" too.
90.6

Check "CCCCCc1ccc(S(=O)(=O)Nc2cc(-c3csc(N)n3)ccc2OC)cc1" too.
103

Check Nc1cc(C(=O)N/N=C\c2ccc(OC(F)F)c(OC3CCCC3)c2)nn1CC(O)c1ccccc1 (stereo not given) too.
103

Check "C/C(=N\NC(=O)/C=C/CC(=O)O)c1nnn(-c2ccc([N+](=O)[O-])cc2)c1C" too.
99.1

Check "O=C(CSc1nnc(-c2ccc(Cl)cc2)n1-c1ccccc1)Nc1cccc(F)c1" too.
36.7

Check "O=C(CCCCCCN1CC(=O)N2[C@@H](C3CC3)c3[nH]c4ccccc4c3C[C@H]2C1=O)NO" too.
74.6

Check "CCNC(=O)Oc1ccc(/C(=C(/C)c2ccc(OC)cc2)c2ccc(OCCN3CCCCCC3)cc2)cc1" too.
80.9

Check "COc1ccc(N2CCN(C3=C(Cl)C(=O)c4ncccc4C3=O)CC2)cc1" too.
97.2

Check "CCOC(=O)Nc1ccc2c(ccn2C(=O)c2cccc(F)c2)c1" too.
61.8

Check "CCN(CC)CCOc1ccc(C(=C(C)c2ccc(OC)cc2)c2ccc(OCCN(CC)CC)cc2)cc1" too.
33.5

Check "COc1ccc2c(c1)c(-c1nnc(N)nc1-c1c[nH]c3ccc(F)cc13)cn2C" too.
87

Check "O=C1/C(=C/C=C/c2ccco2)SC(=S)N1Cc1ccccc1" too.
91.8

Check "Cc1ccc(/C(N)=N/C(N)=N/c2nc3ccccc3s2)cc1" too.
91.3

Check "O=C(O)c1ccc(-n2c(=O)n(-c3cccc(C(F)(F)F)c3)c(=O)c3cc(-c4ccc(F)cc4F)ccc32)cc1" too.
8.23

Check "Cc1ncn(-c2ccc(/C=N/Nc3ccnc4cc(Cl)ccc34)cc2)c1C" too.
45.5

Check CC(=O)C1=C(C)NC(NNc2ccccc2)=NC1c1ccc([N+](=O)[O-])cc1 (stereo not given) too.
84.6

Check "Cc1csc(/N=C(N)/N=C(\N)c2cccc(C#N)c2)n1" too.
96.6

Check OCC(Nc1ncnc2ccc(-c3cnc4cnccn34)cc12)c1ccccc1 (stereo not given) too.
40

Check "COC(=O)N1CCN(CCNCc2ccc(NC(=O)c3ccc(C)c(C#Cc4cnc5cccnn45)c3)cc2C(F)(F)F)CC1" too.
75.3
